- Assayed Target: human HSL (Homo sapiens)
- Construct: generate a full length human HSL ORF with a 3′-His6 tag; His6 (C); made in house; host or cells: High 5 insect cells (baculovirus, pFast-BAC)
- Sequence (Q05469 1-1076): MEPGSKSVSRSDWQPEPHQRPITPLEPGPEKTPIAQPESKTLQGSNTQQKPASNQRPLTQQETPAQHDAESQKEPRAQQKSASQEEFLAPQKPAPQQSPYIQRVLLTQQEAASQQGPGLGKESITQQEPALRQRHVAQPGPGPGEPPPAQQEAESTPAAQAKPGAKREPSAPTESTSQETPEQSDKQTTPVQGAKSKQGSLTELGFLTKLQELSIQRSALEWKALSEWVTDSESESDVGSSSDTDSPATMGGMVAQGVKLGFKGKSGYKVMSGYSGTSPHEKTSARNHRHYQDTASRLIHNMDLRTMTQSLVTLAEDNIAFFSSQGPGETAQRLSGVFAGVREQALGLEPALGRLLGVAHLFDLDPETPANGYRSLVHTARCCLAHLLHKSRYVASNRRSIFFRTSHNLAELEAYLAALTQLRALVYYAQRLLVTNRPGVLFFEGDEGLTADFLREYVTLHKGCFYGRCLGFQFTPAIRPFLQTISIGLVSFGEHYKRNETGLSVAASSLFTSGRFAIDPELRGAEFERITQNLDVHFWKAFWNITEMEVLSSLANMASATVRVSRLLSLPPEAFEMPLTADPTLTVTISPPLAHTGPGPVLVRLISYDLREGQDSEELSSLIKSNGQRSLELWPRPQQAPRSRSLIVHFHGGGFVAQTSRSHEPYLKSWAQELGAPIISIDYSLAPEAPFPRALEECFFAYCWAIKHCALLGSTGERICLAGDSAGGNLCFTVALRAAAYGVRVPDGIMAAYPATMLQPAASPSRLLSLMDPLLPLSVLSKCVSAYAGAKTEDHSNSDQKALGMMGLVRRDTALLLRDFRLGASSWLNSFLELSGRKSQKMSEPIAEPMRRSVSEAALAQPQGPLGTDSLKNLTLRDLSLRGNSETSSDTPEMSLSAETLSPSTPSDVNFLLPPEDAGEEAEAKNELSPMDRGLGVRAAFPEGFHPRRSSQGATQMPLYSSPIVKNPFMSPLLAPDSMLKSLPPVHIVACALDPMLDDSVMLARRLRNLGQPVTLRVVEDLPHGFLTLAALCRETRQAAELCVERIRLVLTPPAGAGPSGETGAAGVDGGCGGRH
- Experiment Summary: Human Hormone-Sensitive Lipase (HSL) enzyme inhibition assay (colorimetric, DMPT substrate)
- Assay type: biochemical
- Setup Conditions: read-out: HSL hum IC50
pIC50: −log10 of the molar value. Where a name gives a salt, the structure may show the parent alone.
Observable: pIC50

[[record]]
molecule = "Cc1ccc(S(=O)(=O)N2CCC(N)(C(=O)Nc3ccc(C(C)(C)C)cc3)CC2)cc1 [Example 77, hydrochloride]"
measured = 7.30

[[record]]
molecule = "CC(C)(C)c1ccc(NC(=O)N2CCC(N)(C(=O)Nc3ccc(C(C)(C)C)cc3)CC2)cc1 [Example 90, hydrochloride]"
measured = 6.89

[[record]]
molecule = "CC(C)c1ccc(NC(=O)C2(N)CCN(C(=O)OCc3ccccc3)CC2)cc1 [Example 82, hydrochloride]"
measured = 6.49

[[record]]
molecule = "Cc1ccc(NC(=O)C2(N)CCN(C(=O)Nc3ccc(C(C)(C)C)cc3)CC2)cc1 [Example 88, hydrochloride]"
measured = 6.43

[[record]]
molecule = "CC(C)c1ccc(NC(=O)C2(N)CCN(Cc3ccccc3C(F)(F)F)CC2)cc1 [Example 114, hydrochloride]"
measured = 6.68

[[record]]
molecule = "CCc1ccc(NC(=O)C2(N)CCN(S(=O)(=O)CC3CCCCC3)CC2)cc1"
measured = 6.85

[[record]]
molecule = "Cc1ccc(S(=O)(=O)N2CCC(N)(C(=O)Nc3ccc(OC(F)(F)F)cc3)CC2)cc1 [Example 80, hydrochloride]"
measured = 7.30

[[record]]
molecule = "Cc1ccccc1S(=O)(=O)N1CCC(N)(C(=O)Nc2ccc(C(C)C)cc2)CC1"
measured = 7.22


(a) CC(C)c1ccc(NC(=O)C2(N)CCN(Cc3ccccc3OC(F)(F)F)CC2)cc1 [Example 113, hydrochloride]
(b) CC(C)(Oc1ccc(NC(=O)C2(N)CCN(S(=O)(=O)c3ccccc3Cl)CC2)cc1)C(F)(F)F
## Task Select the item with the higher value of pIC50 from the options a and b listed. Lab note: record the label of whichever item you select.
## Result a
(a: 7.10, b: 6.74)

---

- Assayed Target: human HSL (Homo sapiens, UniProt Q05469)
- Sequence (Q05469 1-1076): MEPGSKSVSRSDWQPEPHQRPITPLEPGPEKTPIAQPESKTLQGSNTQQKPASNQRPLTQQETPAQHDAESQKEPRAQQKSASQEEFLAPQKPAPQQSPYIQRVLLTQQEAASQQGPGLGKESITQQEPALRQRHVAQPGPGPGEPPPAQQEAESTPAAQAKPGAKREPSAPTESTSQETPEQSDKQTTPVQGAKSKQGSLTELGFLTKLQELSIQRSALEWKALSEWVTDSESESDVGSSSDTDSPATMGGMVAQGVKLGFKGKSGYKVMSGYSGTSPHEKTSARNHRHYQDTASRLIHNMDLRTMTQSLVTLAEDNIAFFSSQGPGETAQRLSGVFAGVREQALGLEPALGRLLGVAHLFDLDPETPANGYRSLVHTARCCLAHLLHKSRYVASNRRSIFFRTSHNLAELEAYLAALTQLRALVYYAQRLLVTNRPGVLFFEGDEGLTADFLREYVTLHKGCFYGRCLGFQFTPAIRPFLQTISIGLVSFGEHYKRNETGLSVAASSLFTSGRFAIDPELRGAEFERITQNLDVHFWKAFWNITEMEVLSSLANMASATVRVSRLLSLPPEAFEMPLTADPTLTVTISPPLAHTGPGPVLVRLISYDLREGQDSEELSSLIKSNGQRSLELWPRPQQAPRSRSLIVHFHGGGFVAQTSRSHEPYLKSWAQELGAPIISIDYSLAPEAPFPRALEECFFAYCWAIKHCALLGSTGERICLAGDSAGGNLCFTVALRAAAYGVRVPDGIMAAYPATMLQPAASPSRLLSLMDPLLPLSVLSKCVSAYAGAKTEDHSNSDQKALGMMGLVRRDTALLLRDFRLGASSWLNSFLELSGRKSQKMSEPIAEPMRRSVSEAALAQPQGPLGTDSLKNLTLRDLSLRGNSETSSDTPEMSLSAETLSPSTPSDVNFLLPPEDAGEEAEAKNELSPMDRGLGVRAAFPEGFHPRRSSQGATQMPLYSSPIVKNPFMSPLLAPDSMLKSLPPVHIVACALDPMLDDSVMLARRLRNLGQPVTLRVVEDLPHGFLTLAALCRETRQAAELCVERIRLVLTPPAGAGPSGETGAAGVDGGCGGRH
Counter-ions that a name gives are not always drawn.
Observable: IC50 (nM)

Examples with answers:
[[record]]
molecule = "CCc1ccc(NC(=O)C2(N)CCN(S(=O)(=O)c3ccccc3C)CC2)cc1 [Example 135]"
unit_symbol = "nM"
measured = 80

[[record]]
molecule = "CN(C(=O)C1(O)CCN(S(=O)(=O)CC(C)(C)C)CC1)c1ccc(OC(F)(F)F)cc1 [Example 65]"
unit_symbol = "nM"
measured = 490

[[record]]
molecule = "CC(C)c1ccc(CN2CCC(N)(C(=O)Nc3ccc(C(C)C)cc3)CC2)cc1 [Example 115, hydrochloride]"
unit_symbol = "nM"
measured = 230


(1) CCc1ccc(NC(=O)C2(N)CCN(Cc3ccccc3F)CC2)cc1 [Example 153]
(2) CC(C)CCC(=O)N1CCC(N)(C(=O)Nc2ccc(C(C)C)cc2)CC1 [Example 129]
(3) CC(C)(C)c1ccc(NC(=O)C2(O)CCN(Cc3ccc(C(F)(F)F)cc3)CC2)cc1 [Example 20]
## Task In this exercise, place the 3 molecules in ascending sequence of their recorded IC50. # the answer lists labels in the order requested
## Result 1, 3, 2

---

- Assayed Target: human HSL (Homo sapiens, UniProt Q05469)
- Sequence (Q05469 1-1076): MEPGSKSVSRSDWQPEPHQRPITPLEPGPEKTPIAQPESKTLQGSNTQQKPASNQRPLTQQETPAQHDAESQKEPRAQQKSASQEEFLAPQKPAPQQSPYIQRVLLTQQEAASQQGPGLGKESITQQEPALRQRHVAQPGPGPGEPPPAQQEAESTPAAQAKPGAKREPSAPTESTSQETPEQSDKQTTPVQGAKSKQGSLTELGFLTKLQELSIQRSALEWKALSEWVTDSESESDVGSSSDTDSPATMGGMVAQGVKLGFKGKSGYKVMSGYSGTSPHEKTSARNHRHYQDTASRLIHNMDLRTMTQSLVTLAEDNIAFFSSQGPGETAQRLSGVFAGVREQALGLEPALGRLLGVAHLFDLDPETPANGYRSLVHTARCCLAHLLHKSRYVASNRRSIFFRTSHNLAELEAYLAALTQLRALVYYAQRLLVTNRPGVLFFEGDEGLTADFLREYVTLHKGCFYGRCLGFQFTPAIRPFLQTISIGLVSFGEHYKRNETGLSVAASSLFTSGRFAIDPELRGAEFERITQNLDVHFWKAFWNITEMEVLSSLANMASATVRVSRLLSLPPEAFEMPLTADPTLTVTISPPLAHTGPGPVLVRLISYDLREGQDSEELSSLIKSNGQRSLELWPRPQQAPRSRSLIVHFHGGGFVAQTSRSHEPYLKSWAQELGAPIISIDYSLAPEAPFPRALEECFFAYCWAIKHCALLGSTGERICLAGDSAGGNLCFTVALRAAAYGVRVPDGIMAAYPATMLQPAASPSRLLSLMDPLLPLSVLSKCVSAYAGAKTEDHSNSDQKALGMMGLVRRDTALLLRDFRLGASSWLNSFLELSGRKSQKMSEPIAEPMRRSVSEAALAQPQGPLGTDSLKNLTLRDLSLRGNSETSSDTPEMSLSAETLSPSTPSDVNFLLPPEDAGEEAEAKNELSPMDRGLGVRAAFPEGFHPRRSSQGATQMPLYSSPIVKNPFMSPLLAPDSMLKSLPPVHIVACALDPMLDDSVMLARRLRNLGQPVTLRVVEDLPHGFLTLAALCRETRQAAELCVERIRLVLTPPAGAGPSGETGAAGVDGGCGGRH
pIC50: −log10 of the molar value. Counter-ions that a name gives are not always drawn.
Observable: pIC50

Examples with answers:
[[record]]
compound = "Cc1ccc(NC(=O)C2(N)CCN(C(=O)Nc3ccc(OC(F)(F)F)cc3)CC2)cc1 [Example 84, hydrochloride]"
assayed_target = "human HSL (Homo sapiens, UniProt Q05469)"
observable = "pIC50"
measured = 6.44

[[record]]
compound = "CN(C(=O)C1(O)CCN(Cc2ccccc2F)CC1)c1ccc(OC(F)(F)F)cc1"
assayed_target = "human HSL (Homo sapiens, UniProt Q05469)"
observable = "pIC50"
measured = 6.72

[[record]]
compound = "CCc1ccc(NC(=O)C2(N)CCN(Cc3ccccc3C(F)(F)F)CC2)cc1"
assayed_target = "human HSL (Homo sapiens, UniProt Q05469)"
observable = "pIC50"
measured = 6.74


(P) CCc1ccc(NC(=O)C2(N)CCN(Cc3ccc(C(C)C)cc3)CC2)cc1
(Q) Cc1ccc(S(=O)(=O)N2CCC(N)(C(=O)Nc3ccc(C(C)C)cc3)CC2)cc1 [Example 78, hydrochloride]
(R) CC(C)CS(=O)(=O)N1CCC(N)(C(=O)Nc2ccc(C(C)C)cc2)CC1 [Example 120, hydrochloride]
(S) CCc1ccc(NC(=O)C2(N)CCN(S(=O)(=O)c3ccccc3OC)CC2)cc1
## Task Output the entries ranked by pIC50 from maximum down to minimum. # the answer lists labels in the order requested
## Result Q, S, R, P
(Q: 7.15, S: 6.85, R: 6.64, P: 6.34)
